# System: P. falciparum stage V gametocytes
# Set-up: BacTiter-Glo ATP luminescence viability of purified stage V gametocytes in 384-well plates, per cent inhibition versus DMSO
# EXPERIMENTAL PARAMETERS: 48 h, 5 µM; inhibitor
The campaign covered roughly 13,000 compounds. About 3,200 (25%) showed an effect of 50% or more. This is one part of the list.
Reported values of % Inhibition for individual entries
Write the numeric value and follow it with the unit.

Look over these answered cases.
                            smiles_notation                      tested_system  experimental_value
0  Cn1cc(C2CCN(CCCCNC(=O)c3sc(-c4ccc(C(F)(F)F)cc4)nc3CO)CC2)c2ccccc21  P. falciparum stage V gametocytes             -59.88%
1  CC(=O)Oc1cc(C)ccc1C1CCN(CCCCNC(=O)c2ccc(-c3ccc(C(F)(F)F)cc3)cc2)CC1  P. falciparum stage V gametocytes               28.6%
2  COc1c(C2CCN(CCCCNC(=O)c3ccc(-c4ccc(C(F)(F)F)cc4)c(C(=O)OC(C)C)c3)CC2)ccc2c1CCCC2  P. falciparum stage V gametocytes              32.47%

Attention now turns to another entry.
QUERY: // lookup % Inhibition for `Cc1cc(C2CCN(CCCCNC(=O)c3ccc(-c4ccc(C(F)(F)F)cc4)cc3)CC2)c(C)cc1OCCO`
RESULT: -10.99%
